assay: in vitro; format: cell-based, human; conditions: human; MRC-5 (lung fibroblast); 24 h; one biological replicate (n = 3); read-out: CC50 for human cells
Values of CC50 at 24 h strictly less than 60 µg/mL map to Met, and values of at least 60 µg/mL map to Not met.

CNC(=O)[C@H]1O[C@@H](n2ccc(N)nc2=O)C=C[C@@H]1NC(=O)C[C@@H](N)CCN(C)C(=N)N [Compound 15, Methyl amide]	Met
CCNC(=O)[C@H]1O[C@@H](n2ccc(N)nc2=O)C=C[C@@H]1NC(=O)C[C@@H](N)CCN(C)C(=N)N [Compound 16]	Not met
CN(CC[C@H](N)CC(=O)N[C@H]1C=C[C@H](n2ccc(N)nc2=O)O[C@@H]1C(=O)O)C(=N)N [Compound 1, blasticidin S]	Met
CN(C)C(=O)[C@H]1O[C@@H](n2ccc(N)nc2=O)C=C[C@@H]1NC(=O)C[C@@H](N)CCN(C)C(=N)N [Compound 18]	Not met
CN(CC[C@H](N)CC(=O)N[C@H]1C=C[C@H](n2ccc(N)nc2=O)O[C@@H]1C(=O)NCCO)C(=N)N [Compound 21]	Met
C#CCNC(=O)[C@H]1O[C@@H](n2ccc(N)nc2=O)C=C[C@@H]1NC(=O)C[C@@H](N)CCN(C)C(=N)N [Compound 19]	Met
CN(CC[C@H](N)CC(=O)N[C@H]1C=C[C@H](n2ccc(N)nc2=O)O[C@@H]1C(N)=O)C(=N)N [Compound 2, P10]	Met
C#CCCNC(=O)[C@H]1O[C@@H](n2ccc(N)nc2=O)C=C[C@@H]1NC(=O)C[C@@H](N)CCN(C)C(=N)N [Compound 20]	Not met
